target: recombinant SARS-CoV-2 Main protease (Mpro) (Severe acute respiratory syndrome coronavirus 2 (2019-nCoV) (SARS-CoV-2), UniProt P0DTD1); assay: Cov Mpro Biochemical IC50 Assay; details: recombinant SARS-CoV-2 Mpro, fluorogenic peptide substrate; read-out: MPro IC50
Please provide measured pIC50 for the entries that follow.
Give bare numbers, as −log10 of the molar value.

Worked examples follow.
>>> df
                                smiles_text  endpoint_result
0  O=c1[nH]c2cc(-c3c(Cl)cccc3-c3cn(CCO)nn3)ccc2c(=O)n1-c1cncc2ccccc12             7.17
1  O=c1[nH]c2cc(-c3cccc4cccnc34)ccc2c(=O)n1-c1cncc2ccccc12             5.88
2  COc1cnc(Cl)c(-c2cc3[nH]c(=O)n(-c4cncc5ccccc45)c(=O)c3s2)c1             8.27

Now for a further molecule.
Incoming: Could you share which pIC50 value was measured for Cc1noc(C)c1-c1cc2[nH]c(=O)n(-c3cncc4ccccc34)c(=O)c2s1 ?
Outgoing: 7.45

Just for reference, patent US20240116946A1 is where these values come from.
